Recorded values, source patent US20110028686A1.

TESTED_ON: T1, CBP KIX Y658A (UniProt P45481 586-665, limits assumed)
T1 construct: domain: KIX
METHOD_SUMMARY: FP with CBP KIX variant (text value; Table 3 prints 3.9 ± 0.3)
Square brackets hold non-standard residues; d marks the D form. Ends that are not written are not given here. pS = N[C@@H](COP(=O)(O)O)C(=O)O
MEASUREMENT_TYPE: Kd

Noted for GPSQPTYPGDDAPVRRL[pS]FFYILLDLYLDAPGVC(acetamidofluorescein)-NH2 (designed binder, also called PPKID4 (phosphorylated)) [PPKID4^P] : its Kd reads 4.1 µM
